biological target: Stb4 (UniProt P50104); assay: PBM E-score (8-mer binding enrichment) (E-score (-0.5 to 0.5)); higher = stronger / more preferred TF binding; conditions: protein concentration: 200 nM; construct: GST-DNA-binding domain
Sequence (P50104 whole entry, the tested form may be a part): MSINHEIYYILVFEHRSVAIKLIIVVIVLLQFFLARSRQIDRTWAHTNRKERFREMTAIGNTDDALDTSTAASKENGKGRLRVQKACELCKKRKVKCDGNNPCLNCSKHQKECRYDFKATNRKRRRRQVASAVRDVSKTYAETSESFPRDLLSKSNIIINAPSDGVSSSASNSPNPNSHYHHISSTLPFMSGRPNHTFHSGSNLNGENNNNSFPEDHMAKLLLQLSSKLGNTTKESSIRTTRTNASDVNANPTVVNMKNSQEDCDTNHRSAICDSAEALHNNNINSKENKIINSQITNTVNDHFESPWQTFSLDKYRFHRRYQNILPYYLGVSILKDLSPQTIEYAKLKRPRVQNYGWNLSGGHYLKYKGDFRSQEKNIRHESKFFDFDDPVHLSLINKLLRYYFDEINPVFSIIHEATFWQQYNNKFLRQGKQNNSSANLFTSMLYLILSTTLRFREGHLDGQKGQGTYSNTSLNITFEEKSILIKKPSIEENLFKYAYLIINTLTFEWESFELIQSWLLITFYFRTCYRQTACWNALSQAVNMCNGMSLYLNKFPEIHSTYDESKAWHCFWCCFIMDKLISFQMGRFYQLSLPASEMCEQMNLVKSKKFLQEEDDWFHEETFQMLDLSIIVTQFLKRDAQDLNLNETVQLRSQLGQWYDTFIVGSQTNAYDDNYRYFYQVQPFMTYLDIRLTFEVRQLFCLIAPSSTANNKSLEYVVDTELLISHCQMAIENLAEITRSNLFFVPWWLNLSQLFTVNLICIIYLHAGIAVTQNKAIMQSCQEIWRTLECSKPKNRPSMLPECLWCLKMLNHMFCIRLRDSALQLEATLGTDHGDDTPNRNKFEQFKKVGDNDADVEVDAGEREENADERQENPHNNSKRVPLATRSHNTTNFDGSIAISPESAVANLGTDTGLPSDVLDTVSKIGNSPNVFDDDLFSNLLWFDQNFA
Over roughly 33,000 sequences, “E-score (-0.5 to 0.5)” has its median near -0.056; the highest 2% begin near 0.38. What follows is part of a selection rich in the highest values, with near analogues and random picks from the rest.
Label Satisfied when PBM E-score is at or above -0.1; anything below gets Not satisfied.

For orientation, consider the following solved cases.
>>> df
   sequence_chain          tested_target    class_label
0        ACCATCCT  Stb4 (UniProt P50104)  Not satisfied
1        ACCTTCGT  Stb4 (UniProt P50104)      Satisfied
2        CCCTTCGC  Stb4 (UniProt P50104)  Not satisfied
3        ACGATCCC  Stb4 (UniProt P50104)      Satisfied
4        TATAGACA  Stb4 (UniProt P50104)  Not satisfied

## Input Is PBM E-score at least -0.1? Consider CTCGAATA
## Output Satisfied

## Input Is PBM E-score at least -0.1? Consider AACGAGCT
## Output Not satisfied

## Input Is PBM E-score at least -0.1? Consider GTTCTGAA
## Output Not satisfied
